protocol_summary: Loose specific volume of crystals (50 mL measuring cylinder, two-stage funnel)
Assay type: physicochemical
recorded_conditions: crystal powder
Residues, ends and D or L forms follow the SMILES beside them.
readout_type: Loose specific volume (mL/g)
A number alone suffices; assume mL/g.

Take a look at these entries with their results.
{"columns": ["compound", "readout_type", "data_value"],
 "data": [
  ["C[C@H](N)C(=O)N[C@@H](CCC(N)=O)C(=O)O [Example 10, L-alanyl-L-glutamine nonhydrate] (H-Ala-Gln-OH)", "Loose specific volume", 3.69],
  ["C[C@H](N)C(=O)N[C@@H](CCC(N)=O)C(=O)O [Example 11, L-alanyl-L-glutamine nonhydrate] (H-Ala-Gln-OH)", "Loose specific volume", 3.65]
]}

Turning now to a further record.
Q: Give a short answer stating reported Loose specific volume for CCO.C[C@H](N)C(=O)N[C@@H](CCC(N)=O)C(=O)O [Example 4 (95° C. vacuum drying), L-alanyl-L-glutamine n-ethanolate] (H-Ala-Gln-OH) .
Result: 3.61

---

protocol_summary: Angle of repose (Multi Tester MT-1001T)
Format: physicochemical
recorded_conditions: crystal powder, sieve 1.18 mm, vibration width 0.7 to 0.8 mm
Residues, ends and D or L forms follow the SMILES beside them.
readout_type: Angle of repose (°)
A number alone suffices; assume °.

Take a look at these entries with their results.
{"columns": ["molecule", "Angle of repose, °"],
 "data": [
  ["CCO.C[C@H](N)C(=O)N[C@@H](CCC(N)=O)C(=O)O [Example 4 (25° C. vacuum drying), L-alanyl-L-glutamine n-ethanolate] (H-Ala-Gln-OH)", 39.4],
  ["C[C@H](N)C(=O)N[C@@H](CCC(N)=O)C(=O)O [Example 12, L-alanyl-L-glutamine nonhydrate] (H-Ala-Gln-OH)", 44.7]
]}

Q: Give a short answer stating reported Angle of repose for CCO.C[C@H](N)C(=O)N[C@@H](CCC(N)=O)C(=O)O [Example 2 (95° C. vacuum drying), L-alanyl-L-glutamine n-ethanolate] (H-Ala-Gln-OH) .
Result: 41.2

Q: Give a short answer stating reported Angle of repose for CCO.C[C@H](N)C(=O)N[C@@H](CCC(N)=O)C(=O)O [Example 1, L-alanyl-L-glutamine n-ethanolate] (H-Ala-Gln-OH) .
Result: 39.7

Q: Give a short answer stating reported Angle of repose for C[C@H](N)C(=O)N[C@@H](CCC(N)=O)C(=O)O.O.O [Example 7, L-alanyl-L-glutamine dihydrate] (H-Ala-Gln-OH) .
Result: 43.8

Q: Give a short answer stating reported Angle of repose for C[C@H](N)C(=O)N[C@@H](CCC(N)=O)C(=O)O [Patent No. 4931801 (nonhydrate), L-alanyl-L-glutamine nonhydrate, reference compound] (H-Ala-Gln-OH) .
Result: 50.9

Q: Give a short answer stating reported Angle of repose for C[C@H](N)C(=O)N[C@@H](CCC(N)=O)C(=O)O [Example 5, L-alanyl-L-glutamine nonhydrate] (H-Ala-Gln-OH) .
Result: 40.2

Q: Give a short answer stating reported Angle of repose for C[C@H](N)C(=O)N[C@@H](CCC(N)=O)C(=O)O [Example 11, L-alanyl-L-glutamine nonhydrate] (H-Ala-Gln-OH) .
Result: 42.8

Q: Give a short answer stating reported Angle of repose for C[C@H](N)C(=O)N[C@@H](CCC(N)=O)C(=O)O [Example 10, L-alanyl-L-glutamine nonhydrate] (H-Ala-Gln-OH) .
Result: 46.4

Q: Give a short answer stating reported Angle of repose for CCO.C[C@H](N)C(=O)N[C@@H](CCC(N)=O)C(=O)O [Example 4 (95° C. vacuum drying), L-alanyl-L-glutamine n-ethanolate] (H-Ala-Gln-OH) .
Result: 42.5

Source: patent US11192851B2
